Where do the numbers come from? From ChEMBL document CHEMBL2396612.

organism: Homo sapiens; assay: Selectivity index, ratio of IC50 for ACAT1 (unknown origin) to IC50 for ACAT2 (unknown origin)
Here, each record is paired with measured Ratio IC50 data.

{"Compound": "C[C@@]12CO[C@@H](c3ccccc3)O[C@H]1CC[C@@]1(C)[C@H]2C[C@H](OC(=O)c2cccc(C#N)c2)[C@@]2(C)Oc3cc(-c4cccnc4)oc(=O)c3[C@H](O)[C@H]12", "Qualifier Symbol": "=", "Ratio IC50": 73.3}
{"Compound": "CC(=O)OC[C@@]1(C)[C@@H]2C[C@H](OC(=O)c3ccc(C#N)cc3)[C@@]3(C)Oc4cc(-c5cccnc5)oc(=O)c4[C@H](O)[C@@H]3[C@@]2(C)CC[C@@H]1OC(C)=O", "Qualifier Symbol": "=", "Ratio IC50": 4620}
{"Compound": "C[C@@]12CO[C@@H](c3ccccc3)O[C@H]1CC[C@@]1(C)[C@H]2C[C@H](OC(=O)c2cccc(Cl)c2)[C@@]2(C)Oc3cc(-c4cccnc4)oc(=O)c3[C@H](O)[C@H]12", "Qualifier Symbol": "=", "Ratio IC50": 142}
{"Compound": "COc1ccccc1[C@@H]1OC[C@@]2(C)[C@@H]3C[C@H](OC(=O)c4ccc(C#N)cc4)[C@@]4(C)Oc5cc(-c6cccnc6)oc(=O)c5[C@H](O)[C@@H]4[C@@]3(C)CC[C@@H]2O1", "Qualifier Symbol": ">", "Ratio IC50": 1930}
{"Compound": "C[C@@]12CO[C@@H](c3ccccc3)O[C@H]1CC[C@@]1(C)[C@H]2C[C@H](OC(=O)c2ccc(C=O)cc2)[C@@]2(C)Oc3cc(-c4cccnc4)oc(=O)c3[C@H](O)[C@H]12", "Qualifier Symbol": "=", "Ratio IC50": 183}
{"Compound": "C[C@@]12CO[C@@H](c3ccccc3)O[C@H]1CC[C@@]1(C)[C@H]2C[C@H](OC(=O)c2ccc(C#N)cc2)[C@@]2(C)Oc3cc(-c4cccnc4)oc(=O)c3[C@H](O)[C@H]12", "Qualifier Symbol": "=", "Ratio IC50": 467}
{"Compound": "Cc1cccc([C@@H]2OC[C@@]3(C)[C@@H]4C[C@H](OC(=O)c5ccc(F)cc5)[C@@]5(C)Oc6cc(-c7cccnc7)oc(=O)c6[C@H](O)[C@@H]5[C@@]4(C)CC[C@@H]3O2)c1", "Qualifier Symbol": "=", "Ratio IC50": 200}
{"Compound": "Cc1ccc([C@@H]2OC[C@@]3(C)[C@@H]4C[C@H](OC(=O)c5ccc(C#N)cc5)[C@@]5(C)Oc6cc(-c7cccnc7)oc(=O)c6[C@H](O)[C@@H]5[C@@]4(C)CC[C@@H]3O2)cc1", "Qualifier Symbol": "=", "Ratio IC50": 836}
{"Compound": "C[C@@]12CO[C@@H](c3ccccc3)O[C@H]1CC[C@@]1(C)[C@H]2C[C@H](OC(=O)c2cccc(F)c2)[C@@]2(C)Oc3cc(-c4cccnc4)oc(=O)c3[C@H](O)[C@H]12", "Qualifier Symbol": "=", "Ratio IC50": 231}
{"Compound": "C[C@@]12CO[C@@H](c3ccccc3)O[C@H]1CC[C@@]1(C)[C@H]2C[C@H](OC(=O)c2cccc(Br)c2)[C@@]2(C)Oc3cc(-c4cccnc4)oc(=O)c3[C@H](O)[C@H]12", "Qualifier Symbol": "=", "Ratio IC50": 143}
